ASSAY NAME: Chemical stability in acidic solution containing tetrahydrofuran and 10% aqueous HCl after 96 hrs
Type: physicochemical
PARTICULARS: acidic solution of tetrahydrofuran and 10% aqueous HCl; read-out: Stability
MEASURE NAME: remaining at 96 h (%)
Could you give me the number in %? Just the number is fine.

Q. # input compound: `C[C@H]1[C@H](OC(=O)C2c3ccccc3-c3ccccc32)O[C@@H]2O[C@]3(C)CC[C@H]4[C@H](C)CC[C@@H]1[C@@]24OO3` ; wanted: its remaining at 96 h
A. 80

* * *

ASSAY NAME: Partition coefficient, log P of the compound
Format: physicochemical
PARTICULARS: octanol/water
MEASURE NAME: logP
Could you keep your reply to the number by itself?

Some solved entries appear below for comparison.
SMILES DATA	MEASURE NAME	MEASURED NUMBER
C[C@H]1[C@H](OC(=O)C23CC4CC(CC(C4)C2)C3)O[C@@H]2O[C@]3(C)CC[C@H]4[C@H](C)CC[C@@H]1[C@@]24OO3	logP	6.05
C[C@H]1[C@H](OC(=O)CC23CC4CC(CC(C4)C2)C3)O[C@@H]2O[C@]3(C)CC[C@H]4[C@H](C)CC[C@@H]1[C@@]24OO3	logP	5.99
C[C@H]1[C@H](OC(=O)CC2c3ccccc3-c3ccccc32)O[C@@H]2O[C@]3(C)CC[C@H]4[C@H](C)CC[C@@H]1[C@@]24OO3	logP	6.79

Would you kindly look at the next entry?
Q. Requested read-out: logP. Entry: `C[C@H]1[C@H](OC(=O)Cc2ccc(-c3ccccc3)cc2)O[C@@H]2O[C@]3(C)CC[C@H]4[C@H](C)CC[C@@H]1[C@@]24OO3`
A. 6.89

* * *

ASSAY NAME: Partition coefficient, log P of the compound
Type: physicochemical
PARTICULARS: octanol/water
Reported logP values are given for each entry in this list.
Give your answer as a number; write no unit.

COMPOUND	MEASURED NUMBER
C[C@H]1[C@H](OC(=O)CCC23CC4CC(CC(C4)C2)C3)O[C@@H]2O[C@]3(C)CC[C@H]4[C@H](C)CC[C@@H]1[C@@]24OO3	6.41
C[C@H]1[C@H](OC(=O)c2ccc(-c3ccccc3)cc2)O[C@@H]2O[C@]3(C)CC[C@H]4[C@H](C)CC[C@@H]1[C@@]24OO3	6.95

Field: next compound
Q. What value of logP has been recorded for this entry: `C[C@H]1[C@H](OC(=O)C2c3ccccc3-c3ccccc32)O[C@@H]2O[C@]3(C)CC[C@H]4[C@H](C)CC[C@@H]1[C@@]24OO3`
A. 6.61

* * *

ASSAY NAME: Partition coefficient, log P of the compound
Format: physicochemical
PARTICULARS: octanol/water
MEASURE NAME: logP
No unit in the answer, please; the number alone is enough.

// below: answered compounds
COMPOUND	MEASURED NUMBER
C[C@H]1[C@H](OC(=O)CC2C3CC4CC(C3)CC2C4)O[C@@H]2O[C@]3(C)CC[C@H]4[C@H](C)CC[C@@H]1[C@@]24OO3 (stereo partly drawn)	5.85
C[C@H]1[C@H](OC(=O)COc2ccc(-c3ccccc3)cc2)O[C@@H]2O[C@]3(C)CC[C@H]4[C@H](C)CC[C@@H]1[C@@]24OO3	6.53

Q. Given the entry `C[C@H]1[C@H](OC(=O)COc2ccccc2-c2ccccc2)O[C@@H]2O[C@]3(C)CC[C@H]4[C@H](C)CC[C@@H]1[C@@]24OO3` , report its measured logP.
A. 6.53
